test system: P. lilacinum strain 251 spores; assay: spore viability (germination rate on agar) of P. lilacinum spores in carrier fluid after storage at 30° C.; format: cell-based, Purpureocillium lilacinum; conditions: P. lilacinum strain 251 in the liquid; day 1
assay-readout: spore viability [%] at day 1 (%)
// note: answer is a bare numeric in %

compound	unit-abbreviation	recorded-measurement
COC(C)COC(C)COC(C)CO (stereo not shown)	%	85.4
COC(C)COC(C)CO (stereo not shown)	%	91.0
COC(C)COC(C)COC(C)=O (stereo not shown) [Dowanol DPMA, Dipropylene glycol methyl ether acetate]	%	99.1

Please find the next compound below.
Lab note: compound CCCCOCCOCCO [Butylcarbitol, diethylenglycol monobutylether, reference compound] tested on P. lilacinum strain 251 spores; recorded spore viability [%] at day 1 was 92.7

* * *

tested on: P. lilacinum strain 251 spores; test: spore viability (germination rate on agar) of P. lilacinum spores in carrier fluid after storage at 30° C.; type: cell-based, Purpureocillium lilacinum; details: Purpureocillium lilacinum, 1 d
Recorded spore viability [%] at day 1 for the following molecules
// note: answer is a bare numeric in %

Reference set (3 entries):
molecule	unit-abbreviation	recorded-measurement
CC(=O)OCC(C)OC(C)=O (stereo not shown)	%	98.8
COCC(C)OCC(C)OC (stereo not shown)	%	98.8
CCCCOCCOCCOCCO	%	77.5

Lab note: molecule COCCOCCOCCO [Methoxytriglycol, Triethylenglycol monomethyl ether, reference compound] tested on P. lilacinum strain 251 spores; recorded spore viability [%] at day 1 was 83.3

* * *

system: P. lilacinum strain 251 spores; assay: spore viability (germination rate on agar) of P. lilacinum spores in carrier fluid after storage at 30° C.; assay type: cell-based, Purpureocillium lilacinum; details: Purpureocillium lilacinum
assay-readout: spore viability [%] after 3 m (87-92 d) (%)
// note: answer is a bare numeric in %

Reference set (3 entries):
compound	unit-abbreviation	spore viability [%] after 3 m (87-92 d)
CC(=O)OCC(C)OC(C)=O (stereo not shown)	%	88.4
COCC(C)OCC(C)OC (stereo not shown)	%	75.4
COCCOCCOCCO [Methoxytriglycol, Triethylenglycol monomethyl ether, reference compound]	%	19.9

Please find the next compound below.
response.value for `CCCCOCCOCCOCCO` (field: spore viability [%] after 3 m (87-92 d)) = 50.8

The origin of these recorded values is patent US20220015355A1.
